- system under test: T1, cynomolgus GITR (cyGITR), soluble analyte (cynomolgus)
- T1 construct: Soluble analyte in SPR; construct not described; also called cGITR
- assay explanation: SPR (Biacore T200), 37 C; antibody captured on anti-human Fc chip, GITR as analyte; 1:1 Langmuir fit
Please provide measured t1/2 for the entries that follow.
Give bare numbers, in min.

// each listed binder needs a value for t1/2
1. m10H2 (antibody, V domains shown, In ADCC it is called hIgG1; also called anti-human GITR antibody m10H2; A647 labeled m10H2) VH: QVQLQQSGAELMKPGASVKISCTATGYTISRYWIEWVKQRPGHGLEWIGEILPGSGVTNYNEKFKGKATFTADTSSNTAYMQLSSLTSEDSAVYSCARKGTYYAMDYWGQGTSVTVSS VL: DILLTQSPAILSVSPGERVSFSCRASQSIGTSIHWYQQRTNGSPRLLIKYASESVSGIPSRFSGSGSGTDFTLFINSVESEDIADYYCQQTYSWPATFGAGTKLELK
2. h3G7 R5 (antibody, V domains shown, Only variable domains are tied to this name) VH: QVQLVQSGAEVKKPGASVKVSCKASGYTFTGATMNWVRQAPGQGLEWMGLINPYTGGIRYNQKFKGRVTMTRDTSTSTVYMELSSLRSEDTAVYYCARIGGYYDSMDYWGQGTLVTVSS VL: DIQMTQSPSSLSASVGDRVTITCRASESVEPRGINFLNWYQQKPGKAPKLLIYAASQASKGVPSRFSGSGSGTDFTLTISSLQPEDFATYYCQQALELPWTFGGGTKVEIK
3. h10H2 AM (antibody, V domains shown, Whole IgG captured on an anti-human Fc chip) VH: QVQLVQSGAEVKKPGSSVKVSCKASGGTFSRYWIEWVRQAPGQGLEWMGEILPGSGVTFENEKFKGRVTITADESTSTAYMELSSLRSEDTAVYYCARKGRYYAMDYWGQGTLVTVSS VL: EIVLTQSPGTLSLSPGERATLSCRASQSIGTSIHWYQQKPGQAPRLLIYYASESVSGIPDRFSGSGSGTDFTLTISRLEPEDFAVYYCQQTYSWPATFGQGTKVEIK
4. h3G7 AM (antibody, V domains shown, Whole IgG captured on an anti-human Fc chip) VH: QVQLVQSGAEVKKPGASVKVSCKASGYTFTGATMNWVRQAPGQGLEWMGLINPYNGGIRYNQKFKGRVTMTRDTSTSTVYMELSSLRSEDTAVYYCARIGGYYDSMDYWGQGTLVTVSS VL: DIQMTQSPSSLSASVGDRVTITCRASESVDPRGINFLNWYQQKPGKAPKLLIYAASNQAKGVPSRFSGSGSGTDFTLTISSLQPEDFATYYCQQALELPWTFGGGTKVEIK
5. h3G7 LF (antibody, V domains shown, Whole IgG captured on an anti-human Fc chip) VH: QVQLVQSGAEVKKPGASVKVSCKASGYTFTGATMNWVRQAPGQGLEWMGLINPYTGGIRYNQKFKGRVTMTRDTSTSTVYMELSSLRSEDTAVYYCARIGGYYDTMDYWGQGTLVTVSS VL: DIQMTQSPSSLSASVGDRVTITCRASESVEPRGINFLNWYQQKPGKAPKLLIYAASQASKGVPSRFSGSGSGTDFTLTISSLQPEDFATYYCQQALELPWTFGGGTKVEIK

a:
1. 1.6
2. 3
3. 1.1
4. 1.3
5. 0.51
